Examples of molecules with documented pEC50 follow.
- Measurement target: Rat mGlu2 (Rattus norvegicus, UniProt P31421)
- Sequence (P31421 19-872): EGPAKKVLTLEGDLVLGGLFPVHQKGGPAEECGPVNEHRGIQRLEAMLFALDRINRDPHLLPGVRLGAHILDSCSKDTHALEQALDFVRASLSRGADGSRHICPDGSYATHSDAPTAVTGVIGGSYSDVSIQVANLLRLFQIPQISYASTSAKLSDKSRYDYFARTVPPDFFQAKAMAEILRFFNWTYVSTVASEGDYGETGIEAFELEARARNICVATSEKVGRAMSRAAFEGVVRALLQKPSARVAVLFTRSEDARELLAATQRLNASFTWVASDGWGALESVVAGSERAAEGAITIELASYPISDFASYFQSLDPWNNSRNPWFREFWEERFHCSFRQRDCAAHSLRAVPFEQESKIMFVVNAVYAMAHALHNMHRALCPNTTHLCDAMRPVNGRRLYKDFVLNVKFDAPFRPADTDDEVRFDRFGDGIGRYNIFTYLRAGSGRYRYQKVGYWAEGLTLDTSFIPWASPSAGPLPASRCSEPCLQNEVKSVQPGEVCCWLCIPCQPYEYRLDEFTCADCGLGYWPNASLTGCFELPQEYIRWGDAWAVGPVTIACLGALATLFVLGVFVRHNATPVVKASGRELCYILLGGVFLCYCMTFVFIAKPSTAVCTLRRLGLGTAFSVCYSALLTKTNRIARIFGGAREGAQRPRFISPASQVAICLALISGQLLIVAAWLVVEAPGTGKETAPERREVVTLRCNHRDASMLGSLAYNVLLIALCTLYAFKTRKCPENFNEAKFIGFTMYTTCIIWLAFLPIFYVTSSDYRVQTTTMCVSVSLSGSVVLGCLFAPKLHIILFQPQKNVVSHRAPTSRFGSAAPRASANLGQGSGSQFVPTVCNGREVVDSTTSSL
- Procedure summary: mGlu receptor in vitro assay, thallium flux through GIRK channels, rat mGlu2
- Stated conditions: PAM potency with EC20 glutamate
pEC50 here is simply -log10 of the concentration when that concentration is written in mol/L.

Example entries begin here.
Molecule	Endpoint label	Result number
Cc1c(C(=O)O)cccc1-c1cccc(COc2ccc(C(=O)CC(C)(C)C)c(O)c2C)c1	pEC50	7.04
CCCC(=O)c1ccc(OCc2cnc(-c3cccc(C(=O)O)c3)cn2)c(C)c1O	pEC50	6.32
Cc1c(OCc2ccc(-c3cccc(C(=O)O)c3)nn2)ccc(C(=O)CC(C)(C)C)c1O	pEC50	6.04
Cc1c(OCc2cccc(-c3cccc(NC(=O)NS(C)(=O)=O)c3)c2)ccc(C(=O)CC(C)(C)C)c1O	pEC50	5.82
COc1ccc(C(=O)O)cc1OCCSCCOc1ccc(C(=O)CC(C)(C)C)c(O)c1C	pEC50	7.64
COc1cc(F)c(C(=O)O)cc1-c1cnc(COc2ccc(C(=O)CC(C)(C)C)c(O)c2C)cn1	pEC50	6.60
CCCC(=O)c1ccc(OCC(=O)c2cccc(-c3cccc(C(=O)O)c3C)c2)c(C)c1O	pEC50	6.78
COc1ccc(-c2cnc(COc3ccc(C(=O)CC(C)(C)C)c(O)c3C)cn2)cc1C(=O)O	pEC50	6.37

Moving on to the next molecule.
Problem: If you can, please state the reported pEC50 value of `Cc1c(OCCCCCOc2ccc(F)c(C(=O)O)c2)ccc(C(=O)CC(C)C)c1O` .
Solution: 6.95
